- method summary: AUC (0 to 6 hrs) in Sprague-Dawley rat at 30 mg/kg, po by LC-MS/MS analysis
- Assay type: ADME, organism-based
- Parameters: dose 30 mg/kg, time < 6 hr, route oral
- condition notes: in vivo
endpoint label: AUC(0-t) at 6 h (ng·h/mL)

As a guide, the following entries are already answered.
Ask: Dear colleague, I am looking for the recorded AUC(0-t) at 6 h of the following compound: O=C(CC1([C@H]2COC[C@@H](C3CC3)N2S(=O)(=O)c2ccc(F)cc2)CC1)N1CCN(CCO)CC1
Reply: 1970

Ask: For the compound shown here, O=C(CC1([C@H]2COC[C@@H](C3CC3)N2S(=O)(=O)c2ccc(Cl)cc2)CC1)N1CC2CCC(C1)N2 , give the reported AUC(0-t) at 6 h.
Reply: 1160

[1] CC(=O)N1CCN(C(=O)CC2([C@H]3COC[C@@H](C4CC4)N3S(=O)(=O)c3ccc(F)cc3)CC2)CC1
[2] O=C(C(O)C1([C@H]2COC[C@@H](C3CC3)N2S(=O)(=O)c2ccc(Cl)cc2)CC1)N1CC2CCC(C1)N2 (some centres undefined)
Ask: Select the item with the higher value of AUC(0-t) at 6 h from the options 1 and 2 listed. Give the label under which the chosen entry appears.
Reply: 1
(1: 3160 ng·h/mL, 2: 254 ng·h/mL)
